System: human Factor 11 mRNA
Assay: Dose-dependent inhibition of human Factor 11 in HepG2 cells, electroporation 0.7-20 uM (Example 4)
Assay type: cell-based
Strand notation (5' to 3'): a small letter for the sugar, then the base; units joined by * are phosphorothioate-linked, units joined directly phosphodiester-linked; [ ] holds rarer units or linkages, { } end groups; capitals alone tell only the bases. e = 2'-O-(2-methoxyethyl) (MOE); [5mC] = 5-methylcytosine; d = 2'-deoxy (DNA)

[
  {
    "substance": "416984 (antisense e[5mC]*eA*dA*d[5mC]*d[5mC]*dG*dG*dG*dA*dT*dG*dA*dT*dG*dA*eG*eT*eG*e[5mC]*eA) [compound 416984]",
    "IC50": "1.1 µM"
  },
  {
    "substance": "416973 (antisense eT*eT*dA*dT*dG*d[5mC]*d[5mC]*d[5mC]*dT*dT*d[5mC]*dA*dT*dG*dT*e[5mC]*eT*eA*eG*eG) [compound 416973]",
    "IC50": "2.3 µM"
  },
  {
    "substance": "413467 (antisense eG*eG*eT*e[5mC]*e[5mC]*dA*d[5mC]*dA*dT*dA*dA*dA*dT*dG*dT*e[5mC]*eT*eT*eT*eG) [compound 413467]",
    "IC50": "4.2 µM"
  },
  {
    "substance": "416972 (antisense eT*eA*dT*dG*d[5mC]*d[5mC]*d[5mC]*dT*dT*d[5mC]*dA*dT*dG*dT*d[5mC]*eT*eA*eG*eG*eT) [compound 416972]",
    "IC50": "4.3 µM"
  },
  {
    "substance": "417002 (antisense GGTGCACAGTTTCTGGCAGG; 2-13-5 gapmer chemistry, further chemistry not given here) [compound 417002]",
    "IC50": "2.2 µM"
  },
  {
    "substance": "416925 (antisense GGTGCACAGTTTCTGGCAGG; 3-14-3 gapmer chemistry, further chemistry not given here) [compound 416925]",
    "IC50": "3.9 µM"
  },
  {
    "substance": "416941 (antisense eG*eG*e[5mC]*dA*dG*d[5mC]*dG*dG*dA*d[5mC]*dG*dG*d[5mC]*dA*dT*dT*dG*eG*eT*eG) [compound 416941]",
    "IC50": "3 µM"
  },
  {
    "substance": "416999 (antisense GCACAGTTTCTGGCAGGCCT; 2-13-5 gapmer chemistry, further chemistry not given here) [compound 416999]",
    "IC50": "2.8 µM"
  },
  {
    "substance": "416825 (antisense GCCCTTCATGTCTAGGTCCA; 5-10-5 gapmer, further chemistry not given here) [compound 416825]",
    "IC50": "1.3 µM"
  },
  {
    "substance": "416895 (antisense eT*eA*eT*dG*d[5mC]*d[5mC]*d[5mC]*dT*dT*d[5mC]*dA*dT*dG*dT*d[5mC]*dT*dA*eG*eG*eT) [compound 416895]",
    "IC50": "3 µM"
  },
  {
    "substance": "416826 (antisense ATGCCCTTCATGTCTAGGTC; 5-10-5 gapmer, further chemistry not given here) [compound 416826]",
    "IC50": "3.2 µM"
  },
  {
    "substance": "412206 (antisense e[5mC]*e[5mC]*eG*eT*eG*d[5mC]*dA*dT*d[5mC]*dT*dT*dT*d[5mC]*dT*dT*eG*eG*e[5mC]*eA*eT) [compound 412206]",
    "IC50": "2.7 µM"
  },
  {
    "substance": "416908 (antisense eG*e[5mC]*eA*dA*d[5mC]*d[5mC]*dG*dG*dG*dA*dT*dG*dA*dT*dG*dA*dG*eT*eG*e[5mC]) [compound 416908]",
    "IC50": "2.8 µM"
  },
  {
    "substance": "417003 (antisense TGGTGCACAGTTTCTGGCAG; 2-13-5 gapmer chemistry, further chemistry not given here) [compound 417003]",
    "IC50": "3.9 µM"
  },
  {
    "substance": "413476 (antisense eT*eT*eG*eA*eG*dA*dT*dT*d[5mC]*dT*dT*dT*dG*dG*dG*e[5mC]*e[5mC]*eA*eT*eT) [compound 413476]",
    "IC50": "0.9 µM"
  },
  {
    "substance": "416926 (antisense eT*eG*eG*dT*dG*d[5mC]*dA*d[5mC]*dA*dG*dT*dT*dT*d[5mC]*dT*dG*dG*e[5mC]*eA*eG) [compound 416926]",
    "IC50": "0.6 µM"
  },
  {
    "substance": "416856 (antisense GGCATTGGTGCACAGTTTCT; 5-10-5 gapmer, further chemistry not given here) [compound 416856]",
    "IC50": "5.1 µM"
  },
  {
    "substance": "416922 (antisense eG*e[5mC]*eA*d[5mC]*dA*dG*dT*dT*dT*d[5mC]*dT*dG*dG*d[5mC]*dA*dG*dG*e[5mC]*e[5mC]*eT) [compound 416922]",
    "IC50": "1.7 µM"
  },
  {
    "substance": "416931 (antisense eG*eG*e[5mC]*dA*dT*dT*dG*dG*dT*dG*d[5mC]*dA*d[5mC]*dA*dG*dT*dT*eT*e[5mC]*eT) [compound 416931]",
    "IC50": "5.1 µM"
  },
  {
    "substance": "412203 (antisense eA*eA*eT*eG*eT*d[5mC]*dT*dT*dT*dG*dT*dT*dG*d[5mC]*dA*eA*eG*e[5mC]*eG*e[5mC]) [compound 412203]",
    "IC50": "2.7 µM"
  },
  {
    "substance": "416827 (antisense eT*eA*eT*eG*e[5mC]*d[5mC]*d[5mC]*dT*dT*d[5mC]*dA*dT*dG*dT*d[5mC]*eT*eA*eG*eG*eT) [compound 416827]",
    "IC50": "1.1 µM"
  },
  {
    "substance": "416896 (antisense eT*eT*eA*dT*dG*d[5mC]*d[5mC]*d[5mC]*dT*dT*d[5mC]*dA*dT*dG*dT*d[5mC]*dT*eA*eG*eG) [compound 416896]",
    "IC50": "3.2 µM"
  }
]

Numbers sourced from patent US20230263822A1.
